Tested on: PC12 cells
ASSAY_NOTES: Neuritic growth / sprouting of PC12 cells in the presence of NGF
Type: cell-based, rat
TEST_SETTINGS: 30 μM, 3 days, NGF 10 ng/ml; relative to PREG

{"columns": ["COMPOUND", "Neuritic sprouting"],
 "data": [
  ["CO[C@H]1CC[C@@]2(C)[C@@H](CC[C@@H]3[C@@H]2CC[C@]2(C)[C@@H](C(C)=O)CC[C@@H]32)C1 [3β-methoxy-5α-pregnane-20-one]", "+++"],
  ["CC(=O)O[C@H](C)[C@H]1CC[C@H]2[C@@H]3CC=C4C[C@@H](O)CC[C@]4(C)[C@H]3CC[C@]12C [Pregna-5-ene-3β,20β-diol-20-acetate]", "++ (equal to)"],
  ["CO[C@H]1CC[C@@]2(C)C(=CC[C@@H]3[C@@H]2CC[C@@]2(C)[C@H]3CC[C@@]2(C(C)=O)C(Cl)Cl)C1", "+++"],
  ["CO[C@H]1CC[C@@]2(C)C(CCC3C2CC[C@@]2(C)C3CC[C@@H]2[C@@H](C)O)C1 (stereo partly drawn) [3β-methoxy-5α-pregnane-20β-ol]", "++ (equal to)"],
  ["CC(=O)[C@H]1CC[C@H]2[C@@H]3CC=C4C[C@@H](O)CC[C@]4(C)[C@H]3CC[C@]12C [PREG, pregnenolone]", "++ (equal to)"],
  ["CC(=O)[C@H]1[C@H](C)C[C@H]2[C@@H]3CC=C4C[C@@H](O)CC[C@]4(C)[C@H]3CC[C@@]21C [PREG-16α-methyl]", "++ (equal to)"]
]}
